experiment: Quantitative highthroughput screen to assess conditional lethalithy of NOMO1 cells grown in Human Plasma-Like Medium with dialyzed fetal bovine serum (HPLM+ds) (AID 1963878); settings: NOMO1 AML cells in HPLM+ds, CellTiter-Glo viability, 48 h; series mostly up to 45.8 µM; also: nearly all actives have a fitted effect of over 35% in size;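 as to viability: 100% = DMSO wells and 0% = empty wells on each plate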
Inconclusive results are not listed. Active and inactive are the calls of the source. Calls follow the shape of the dose curve; as a rule, active = well fitted cell-killing curve with a large enough effect; inconclusive = small, poorly fitted or top-dose-only effect, or effect the other way; inactive = no such curve, though single readings can be large or run the other way.
Write down one outcome, taken from Yes = active, No = inactive

Past entries and their recorded results:
COc1cc2ncnc(-n3nc(-c4ccccn4)nc3N)c2cc1OC :: Yes
CC1=C(C(=O)O)N2C(=O)[C@@H](NC(=O)[C@H](N)C3=CCC=CC3)[C@H]2SC1 :: No
C[C@H](NC(=O)C(C#N)=Cc1cccc(Br)n1)c1ccccc1 :: Yes
CNC(=O)c1cc(Oc2ccc(NC(=O)Nc3ccc(Cl)c(C(F)(F)F)c3)c(F)c2)ccn1 :: Yes
Oc1ccc(-c2nc(-c3ccc(F)cc3)c(-c3ccncc3)[nH]2)cc1 :: Yes

Here's the next entry for you.
Call for entry CCOc1cc2c(c(F)c1OCC)C(=N)N(CC(=O)c1cc(N3CCOCC3)c(OC)c(C(C)(C)C)c1)C2 : No

###

experiment: Cellular viability qHTS for adrenocortical cancer (ACC) cell line SW-13 (AID 1963989); details: SW-13 ACC cells viability, CellTiter-Glo, 48 h; stronger effect = lower value;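 also: cells grown in serum-free medium with ITS supplement; % is scaled to controls: 0 for no effect and ±100 for the full control effect; nearly all actives have a fitted effect of over 65% in size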
Inconclusive results are not listed.
Property measured: activity (max response) (%)
Give just the number in %; leave the unit off.

# lookup: activity (max response) of O=c1[nH]c(=O)n([C@H]2O[C@H](CO)[C@@H](O)[C@@H]2O)cc1/C=C\Br -3.87

###

assay: Viability qHTS for spleen associated tyrosine kinase inhibitor (SYKi) naive MV4-11 cells (AID 1963823); settings: MV4-11 AML viability, CellTiter-Glo luminescence, 72 h; series mostly up to 45 µM; also: nearly all actives have a fitted effect of over 40% in size
Inconclusive results are not listed. Active and inactive are the calls of the source. Calls come from the whole dose curve; as a rule, active = well fitted cell-killing curve with a large enough effect; inconclusive = small, poorly fitted or top-dose-only effect, or effect the other way; inactive = no such curve, though single readings can be large or run the other way.
Write down one outcome, taken from true (active), false (inactive)

Past entries and their recorded results:
CC(NCCC(c1ccccc1)c1ccccc1)c1ccccc1 (stereo not drawn) :: true
CC(C)(O)C1CC=C(C(=O)OCC2OC(Oc3c(O)cc(C(=O)O)cc3O)C(O)C(O)C2O)CC1 (stereo not drawn) :: false

Here's the next entry for you.
Call for entry CN(C)CC1CCn2c(c(C3=C(c4cn(C)c5ccccc45)C(=O)NC3=O)c3ccccc32)C1 (stereo not drawn) : true

###

target: Cytochrome P450 3A7 (Homo sapiens) (UniProt P24462); assay: Cytochrome P450 family 3 subfamily A member 7 (CYP3A7) small molecule antagonists: luciferase biochemical qHTS assay (AID 1963596); conditions: P450-Glo CYP3A7 enzyme luminescence, 1 h; series mostly up to 57.4 µM; also: nearly all actives have a fitted effect of over 40% in size
Sequence (P24462 whole entry, looked up): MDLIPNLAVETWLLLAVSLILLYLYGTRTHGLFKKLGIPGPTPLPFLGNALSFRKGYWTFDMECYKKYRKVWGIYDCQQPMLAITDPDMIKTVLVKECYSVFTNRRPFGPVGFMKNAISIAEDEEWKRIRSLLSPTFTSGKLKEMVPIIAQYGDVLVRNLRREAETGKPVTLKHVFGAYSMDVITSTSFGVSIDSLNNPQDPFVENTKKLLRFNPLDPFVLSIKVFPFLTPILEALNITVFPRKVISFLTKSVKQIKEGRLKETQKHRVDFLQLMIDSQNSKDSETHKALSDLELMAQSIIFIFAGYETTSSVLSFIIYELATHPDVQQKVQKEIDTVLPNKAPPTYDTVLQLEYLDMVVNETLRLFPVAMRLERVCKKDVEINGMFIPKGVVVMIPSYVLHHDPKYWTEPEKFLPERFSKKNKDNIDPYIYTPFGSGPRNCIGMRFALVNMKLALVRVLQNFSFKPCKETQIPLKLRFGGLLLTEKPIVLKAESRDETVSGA
Records with an inconclusive call do not appear. Activity calls are given as the source filed them. Calls come from the whole dose curve; as a rule, active = well fitted inhibition curve with a large enough effect; inconclusive = small, poorly fitted or top-dose-only effect; inactive = no such curve, though single readings can be large or run the other way.
Write down one outcome, taken from active, inactive

CCOC(=O)c1ccc(NC(=O)CN2CCCCC2)cc1 :: inactive
CN(C)CCc1c[nH]c2ccc(C[C@H]3COC(=O)N3)cc12 :: inactive
COc1cc2c(cc1OC)CN(CCc1ccc(NC(=O)c3cc(OC)c(OC)cc3NC(=O)c3cnc4ccccc4c3)cc1)CC2 :: inactive
CNC1CCN(C(Cc2cccc(-c3ccncc3)c2)C(=O)c2sc3c(F)ccc(F)c3c2Cl)CC1 (stereo unspecified) :: active
COc1ccccc1OC(=O)Oc1ccccc1OC :: inactive
O=c1[nH]c(-c2ccc(C(F)(F)F)cc2)nc2c1CSCC2 :: inactive
CC(C(=O)O)c1ccc(C(=O)c2cccs2)cc1 (stereo unspecified) :: inactive
NC(=Nc1ccccc1)Nc1ccccc1 :: inactive

Call for entry CCCNC(C)C(=O)Nc1ccccc1C (stereo unspecified) : inactive

And c1cc(-c2cc(C3CCNCC3)[nH]n2)ccn1 ? inactive

And C[C@H]1COc2c(C3(N)CC3)c(F)cc3c(=O)c(C(=O)O)cn1c23 ? inactive

###

test: Cellular viability qHTS for adrenocortical cancer (ACC) cell line NCI-H295R (AID 1963990); conditions: CellTiter-Glo ATP luminescence, 48 h; series mostly up to 46.1 µM;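 also: 0% = DMSO only wells and -100% = full killing with cytotoxic reference compound; nearly all actives have a fitted effect of over 60% in size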
Results filed as inconclusive are left out. Active and inactive are the calls of the source. Calls follow the shape of the dose curve; as a rule, active = well fitted cell-killing curve with a large enough effect; inconclusive = small, poorly fitted or top-dose-only effect; inactive = flat fitted curve, though single readings scatter.
Property measured: outcome

CCOc1cc(NC(C)=O)ccc1C(=O)OC :: inactive
CO[C@]1(NC(=O)CSC(F)F)C(=O)N2C(C(=O)O)=C(CSc3nnnn3CCO)CO[C@H]21 :: inactive
CN(C)CCN1CCN(c2cccc(Cl)c2)C1=O :: inactive

###

test: Quantitative highthroughput screen to assess conditional lethalithy of NOMO1 cells grown in RPMI1640 with untreated serum (RPMI+s) (AID 1963876); conditions: NOMO1 AML cells in RPMI+serum, CellTiter-Glo viability, 48 h; series mostly up to 45.8 µM; also: nearly all actives have a fitted effect of over 35% in size;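 as to viability: 100% = DMSO wells and 0% = empty wells without cells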
Records with an inconclusive call do not appear. Active and inactive are the calls of the source. Calls follow the shape of the dose curve; as a rule, active = well fitted cell-killing curve with a large enough effect; inconclusive = small, poorly fitted or top-dose-only effect; inactive = flat fitted curve, though single readings scatter.
Write down one outcome, taken from Yes for active, No for inactive

NC(=O)c1ccc2nc(-c3ccc(Oc4ccc(Cl)cc4)cc3)[nH]c2c1 :: No
CCCCn1c(=O)n(Cc2ccccc2F)c(=O)c2[nH]c(Cc3ccc(NC(C)=O)cc3)nc21 :: No

Call for entry Cc1ccccc1C(C(=O)NC1CCCC1)N(C(=O)Cn1cnc2ccccc21)c1cccc(F)c1 (stereo unspecified) : No

And Nc1ccn([C@@H]2O[C@H](CO)[C@H](O)C2(F)F)c(=O)n1 ? Yes

And C=CC(=O)Nc1cc(NC(=O)c2ccc(C)c(NC(=O)c3ccno3)c2)cc(C(F)(F)F)c1 ? No

And CC=C(C(=CC)c1ccc(O)cc1)c1ccc(O)cc1 ? No

And C[C@@H](O)[C@H]1C(=O)N2C(C(=O)OCOC(=O)C(C)(C)C)=C(SC3CN(C4=NCCS4)C3)[C@H](C)[C@H]12 ? No

###

Assay: Quantitative highthroughput screen to assess conditional lethalithy of SEM cells grown in RPMI1640 with dialyzed fetal bovine serum (RPMI+ds) (AID 1963884); also: nearly all actives have a fitted effect of over 35% in size;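 as to viability: 100% = DMSO control wells and 0% = empty wells without cells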
Details: SEM B-ALL cells, RPMI+dialyzed FBS, CellTiter-Glo viability, 48 h; series mostly up to 45.8 µM
Experimental: Assay Provider: Jason Cantor Ph.D. Department of Biochemistry University of Wisconsin-Madison, Madison, WI, USA Chemical screening studies have identified drug sensitivities across hundreds of cancer cell lines but most putative therapeutics fail to translate. […] Sets of conditional anticancer compounds spanned phases of clinical development and included non-oncology drugs were assessed. […] 6; Detection; Luminescence, Viewlux PerkinElmer. […]
Inconclusive results are not listed. Calls of active or inactive are those of the source. Calls come from the whole dose curve; as a rule, active = well fitted cell-killing curve with a large enough effect; inconclusive = small, poorly fitted or top-dose-only effect, or effect the other way; inactive = no such curve, though single readings can be large or run the other way.
Write down one outcome, taken from active, inactive

Past entries and their recorded results:
Cn1cc(-c2cnn3c(N)c(Br)c([C@H]4CCCNC4)nc23)cn1 :: active
COc1cc(N2CCN(C)CC2)ccc1Nc1nc(N)c(C(=O)c2c(Cl)cccc2Cl)s1 :: active
C[C@H](NC(=O)Cc1cc(F)cc(F)c1)C(=O)N[C@@H]1C(=O)N(C)c2ccccc2-c2ccccc21 :: active
Nc1ccc(C(=O)c2cc3c(ccc4ccccc43)[nH]2)cc1 :: active
CC[C@@H]([C@H](C)O)n1ncn(-c2ccc(N3CCN(c4ccc(OCC5CO[C@@](Cn6cncn6)(c6ccc(F)cc6F)C5)cc4)CC3)cc2)c1=O (stereo partly specified) :: inactive

Here's the next entry for you.
Call for entry CN1CCN(c2ncc(-c3cc(Cl)cc(Cl)c3Cl)c(N)n2)CC1 : inactive

###

Examples of molecules with documented activity (max response) follow.
assay: Cellular viability qHTS for adrenocortical cancer (ACC) cell line SW-13 (AID 1963989); settings: SW-13 ACC cells viability, CellTiter-Glo, 48 h; stronger effect = lower value;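 also: cells grown in serum-free medium with ITS supplement; % is scaled to controls: 0 for no effect and ±100 for the full control effect; nearly all actives have a fitted effect of over 65% in size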
Inconclusive results are not listed.
Give just the number in %; leave the unit off.

CCc1cc(/C(C)=N/OCc2ccc(C3CCCCC3)c(C(F)(F)F)c2)ccc1CN1CC(C(=O)O)C1 :: -17.6
CC1=C2[N-][C@H]([C@H](CC(N)=O)[C@@]2(C)CCC(=O)NC[C@@H](C)OP(=O)([O-])O[C@H]2[C@@H](O)[C@@H](n3cnc4cc(C)c(C)cc43)O[C@@H]2CO)[C@]2(C)N=C(C(C)=C3N=C(C=C4N=C1[C@@H](CCC(N)=O)C4(C)C)[C@@H](CCC(N)=O)[C@]3(C)CC(N)=O)[C@@H](CCC(N)=O)[C@]2(C)CC(N)=O.O.[Co+2] :: -17.2
C=C1C(=O)OC(CCCCCCCC)C1C(=O)O (configuration not stated) :: -7.15
COc1cc(F)c(C(C)C)cc1-c1ccc(C(F)(F)F)cc1CN1C(=O)O[C@H](c2cc(C(F)(F)F)cc(C(F)(F)F)c2)[C@@H]1C :: -14.8
CC[C@H](Nc1ncnc2nc[nH]c12)c1nc2cccc(F)c2c(=O)n1-c1ccccc1 :: -2.88
CCN1CCC[C@H]1CNC(=O)c1c(OC)ccc(Br)c1OC :: -0.795

# lookup: activity (max response) of COc1c(N2C[C@@H]3CCCN[C@@H]3C2)c(F)cc2c(=O)c(C(=O)O)cn(C3CC3)c12 -4.75

And CCCC(CCC)(C(=O)OCC)C(=O)OCC ? 12.5

And Cc1c(NC(C)C)c(=O)n(-c2ccccc2)n1C ? 8.03

And CN1CC[C@@H](NC(=O)Nc2ccc(C#N)cc2)C[C@@H]1c1nc2ccccc2[nH]1 ? -1.78

And CC(C)(Sc1ccc(CCN(CCCCC2CCCCC2)C(=O)NC2CCCCC2)cc1)C(=O)O ? 4.08

And N[C@@H](Cc1ccc(O)cc1)C(=O)O ? 7.19
